Target: Escherichia coli LpxH (UDP-2,3-diacylglucosamine hydrolase) (Escherichia coli (strain K12), UniProt P43341)
Sequence (P43341 whole entry): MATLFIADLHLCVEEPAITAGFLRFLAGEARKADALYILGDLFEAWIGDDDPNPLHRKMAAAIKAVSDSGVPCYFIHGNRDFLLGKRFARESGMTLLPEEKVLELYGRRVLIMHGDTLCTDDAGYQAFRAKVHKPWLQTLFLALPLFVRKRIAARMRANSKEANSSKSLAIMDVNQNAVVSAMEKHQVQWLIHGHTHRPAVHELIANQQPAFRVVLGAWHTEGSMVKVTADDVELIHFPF
Test: 50% Inhibitory Concentration (IC50) to LpxH, UMP/CMP-Glo Glycosyltransferase Assay kit
Description: Example 121: 50% Inhibitory Concentration (IC50) to UDP-2,3-diacylglucosamine hydrolase (LpxH) The inhibitory potency of molecules to UDP-2,3-diacylglucosamine hydrolase (LpxH) was determined using the UMP/CMP-Glo™ Glycosyltransferase Assay kit. […] The assay kit could quantify the UMP production by convert the UMP to ATP and generate light in a luciferase reaction. The compound's effect on the LpxH activity is detected by measuring the light using a luminometer (Envision).
Catalogue of pIC50 readings, one per entry.
Friendly reminder that pIC50 comes from taking -log10 of the concentration in mol/L.

Sample answers from the record:
>  <Compound>
O=C1CC2NCCC2N1c1ccc(S(=O)(=O)N2CCN(c3cc(C(F)(F)F)cc(Cl)n3)CC2)cc1 (centres unmarked) [Example 20]

>  <Measured parameter>
pIC50

>  <Recorded result>
7.21

$$$$
>  <Compound>
N#CC1(c2cc(Cl)nc(N3CCN(S(=O)(=O)c4ccc(N5CC(N)CC5=O)cc4)CC3)c2)CC1 (centres unmarked) [Example 71]

>  <Measured parameter>
pIC50

>  <Recorded result>
6.23

$$$$
>  <Compound>
CNC1CN(CC2CC(=O)N(c3ccc(S(=O)(=O)N4CCN(c5cc(C(F)(F)F)cc(Cl)n5)CC4)cc3)C2)C1 (centres unmarked) [Example 43]

>  <Measured parameter>
pIC50

>  <Recorded result>
7.81

$$$$
>  <Compound>
NCCN1CCC[C@H]2OC(=O)N(c3ccc(S(=O)(=O)N4CCN(c5cc(C(F)(F)F)cc(Cl)n5)CC4)cc3)[C@H]2C1 [Example 25]

>  <Measured parameter>
pIC50

>  <Recorded result>
7.60

$$$$
>  <Compound>
NC1CC(=O)N(c2ccc(S(=O)(=O)N3CCN(c4cc(C(F)(F)c5ncccn5)cc(Cl)n4)CC3)cc2)C1 (centres unmarked) [Example 94]

>  <Measured parameter>
pIC50

>  <Recorded result>
6.73

$$$$
>  <Compound>
CC1C(N)CC(=O)N1c1ccc(S(=O)(=O)N2CCN(c3cc(C(F)(F)F)cc(Cl)n3)CC2)cc1 (centres unmarked) [Example 61]

>  <Measured parameter>
pIC50

>  <Recorded result>
7.30

$$$$
>  <Compound>
NCC1CC(=O)N(c2ccc(S(=O)(=O)N3CCN(c4cc(C(F)(F)F)cc(Cl)n4)CC3)cc2)C1 (centres unmarked) [Example 2]

>  <Measured parameter>
pIC50

>  <Recorded result>
7.07

$$$$
>  <Compound>
CN(C)CC1CN(c2ccc(S(=O)(=O)N3CCN(c4cc(C(F)(F)F)cc(Cl)n4)CC3)cc2)C(=O)O1 (centres unmarked) [Example 28]

>  <Measured parameter>
pIC50

>  <Recorded result>
7.89

$$$$

[Q] Look up pIC50: O=C1O[C@@H]2CCNC[C@@H]2N1c1ccc(S(=O)(=O)N2CCN(c3cc(C(F)(F)F)cc(Cl)n3)CC2)cc1 [Example 18]
[A] 6.82

[Q] Look up pIC50: O=C1CC(NC2CNC2)CN1c1ccc(S(=O)(=O)N2CCN(c3cc(C(F)(F)F)cc(Cl)n3)CC2)cc1 (centres unmarked) [Example 58]
[A] 7.54

[Q] Look up pIC50: O=C1CC(CN2CCNCC2)CN1c1ccc(S(=O)(=O)N2CCN(c3cc(C(F)(F)F)cc(Cl)n3)CC2)cc1 (centres unmarked) [Example 41]
[A] 7.99

[Q] Look up pIC50: NC1CN(CC2CC(=O)N(c3ccc(S(=O)(=O)N4CCN(c5cc(C(F)(F)F)cc(Cl)n5)CC4)cc3)C2)C1 (centres unmarked) [Example 40]
[A] 7.68

[Q] Look up pIC50: NC1CC(=O)N(c2ccc(S(=O)(=O)N3CCN(c4cc(C(F)(F)c5ccccc5)nc(C5CC5)n4)CC3)cc2)C1 (centres unmarked) [Example 79]
[A] 6.75

[Q] Look up pIC50: NCCN1CCC2(CC1)CN(c1ccc(S(=O)(=O)N3CCN(c4cc(C(F)(F)F)cc(Cl)n4)CC3)cc1)C(=O)O2 [Example 24]
[A] 7.83
